Value source: the supplement of paper PMC7156485

System: TDF;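 also: TDF is a line of transformed human dermal fibroblasts of mesenchymal origin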
Assay: H1.0 immunofluorescence intensity relative to DMSO (% of DMSO); higher = stronger H1.0 induction, active = 120 or more
Conditions: concentration: 10 µM; 24 h
# H1.0 immunofluorescence intensity values compiled below
Quick one: just the number, no unit, thanks!

- compound: "OCCOc1ccc(/C(=C(/CCCl)c2ccccc2)c2ccccc2)cc1 [2-{4-[(1Z)-4-chloro-1,2-diphenyl-1-butenyl]phenoxy}ethanol]"
  measured-result: 100

GET /values?readout=H1.0 immunofluorescence intensity&system=TDF&item= CCC=CCC=CCC=CCC=CCC=CCC=CCCC(=O)OC(COCCCCCCCCCCCCCCCC)COP(=O)([O-])OCC[N+](C)(C)C (configuration not stated);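 also: TDF is a line of transformed human dermal fibroblasts of mesenchymal origin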
95.7

Can you check Cc1c2c(c(O)c3c(O)cccc13)C(=O)OC2C1C(O)C(=O)C(C(N)=O)=C(O)C1N(C)C (racemic) next?
96.4

Lookup CCCCCOc1ccccc1C(O)CC#CCCCC(=O)OC (configuration not stated)
93

Please give the result for CC(=O)C1CCC2C3CC=C4CC(OS(=O)(=O)[O-])CCC4(C)C3CCC12C.[Na+] (configuration not stated) [Pregnenolone sulfate sodium] too.
95.8

Similarly, Oc1cc2c(cc1O)C(c1ccccc1)CNCC2 (racemic) ?
92.2

Param item: COc1ccc(-c2cc(=O)c3c(O)cc(OC4OC(COC5OC(C)C(O)C(O)C5O)C(O)C(O)C4O)cc3o2)cc1O (configuration not stated) [Diosmin]
91.8
